FYI, the data here is from patent US7414131B2.

# Assay overview: Pharmacokinetic profile after intravenous and oral administration in rats
# Type: in vivo, rat
# Test settings: male, Sprague-Dawley, plasma; rat; IV 1 mg/kg, oral 5 mg/kg; route of this column not given
Measured metric: Vd (L/kg)

[a] Clc1cccnc1N1CCc2c(ncnc2Nc2ccccc2)C1 [Example 18]
[b] Fc1ccc(Nc2ncnc3c2CCN(c2ncccc2Cl)C3)cc1 [Example 19]
### Prompt Which item exceeds the other in Vd, a or b ? Response format: the label of the selected entry.
### Response a

---

# Assay overview: Pharmacokinetic profile after intravenous and oral administration in rats
# Assay type: in vivo, rat
# Test settings: male, Sprague-Dawley; rat plasma; IV 1 mg/kg, oral 5 mg/kg; route of this column not given
# Experimental: The pharmacokinetic profile of Compound 1 was evaluated following intravenous and oral administration in rats. Sprague-Dawley male rats obtained from Charles River, San Diego, Calif. were acclimated for 24 hours. Compounds of this invention were formulated at a concentration of 0.5 mg/mL for IV administration at a 1 mg/kg dose and 1 mg/mL for oral administration at a 5 mg/kg dose. All animals were weighed before dosing. The body weight was used to calculate the actual dose for each animal. […]
Measured metric: Tmax (min)

Fc1ccc(Nc2ncnc3c2CCN(c2ncccc2Cl)C3)cc1 :: 40.8
Clc1cccnc1N1CCc2c(ncnc2Nc2ccccc2)C1 :: 55.2
